assay-details: protein stability index of a GFP-peptide fusion (GPS, HEK-293T) (PSI 1-6); higher = more stable;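 further: 24-mer peptide tiles fused after GFP, lentivirally expressed, FACS-sorted into six equal bins by GFP/DsRed ratio, decoded by Illumina sequencing, PSI is the read-weighted mean bin number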
test-settings: treatment: DMSO; c terminus: a fixed tail appended
Kindly state protein stability index for each of the entries shown.
One number for each entry.

Sample records with protein stability index:
sequence-text	protein stability index
KDPAYFYGYVYFRQVRDKTLKRGY [DENND6A]	2.44
KATFMYEQFPELMNMLWSRMLKDN [CLINT1]	2.28
PLKLHYQLRNVRERLAKNLVEKGV [GOLPH3]	2.4
LRMLEYEPAARISPLGALQHGFFR [DYRK1B]	2.51
LEQFLSILPKELQGWVREHCPESG [ZSCAN9]	2.5
DDEFFHFVLLCFAIGALLVCYHYY [TMEM40]	2.27
EEIKTWGTVFQELNKLYPTHACRE [TPH1]	2.95
LQSELAGVADFSATYLRCQLLLIK [INTS4]	2.79
RFSHMSERDLQELSIQVEEERRAR [ZMAT5]	5.51
FKDYIQERSDPVEQGKPVIPAAVL [ETS2]	4.08

Please supply protein stability index for each of the following items, keeping them in order.
1. LNVDAAVQQWLQKGTPASKLILGM [CHIT1]
2. VFIIRKSLLDELMEVQHFRTIYHM [SOAT2]
3. YLLDRAVDSFETQRNGLVFIYDMC [PTPN9]
4. FTKETTQKNFNNLYGTKGNYTSRV [TRIM29]
5. PPRIPQADQWKSSNKSLVEALGLE [RHOBTB1]

Reply:
[2.21, 2.85, 2.36, 2.26, 4.45]

Please supply protein stability index for each of the following items, keeping them in order.
1. GAVFNGITLLILAELLIFSVPIVY [RTN3]
2. GPFDLMSRRVIAANNRILAERIAK [IMPA1]
3. LRLLREEEYVAPPRGPLPTLQVVP [TRAF3IP2]
4. KDDKDFTGTVHRIDNTTVIYNSNI [KCNA1]
5. YDGLDCQARQFRTFHHPTYGSCYT [SCNN1D]
6. GGEAAHHTRSPYSTFYPPYHSPEL [NEUROD6]

Reply:
3.33
2.54
2.96
4.29
2.54
3.38

Please supply protein stability index for each of the following items, keeping them in order.
1. GLHVQHMGTSHGITRPSPRRSNSP [CCDC6]
2. EPPEEPEQCPVIDSQAPAGSLDLV [SPDEF]
3. VIDAEPFIRCSLQCRDLVDEAKKF [KLHL12]
4. GKKYNWSCDDLMGGGGLHSVGTYI [GFOD1]
5. RQSLEGLSVRSVFFGVFQSFVVLL [CLPTM1]
6. LRAPTISDLLNDQDLLDVIRIKLD [EDARADD]
7. PEGGMEQALAGASSGRELGRPKEL [ZNF263]
8. MESRKDITNQEELWKMKPRRNLEE [STEAP1]

Reply:
1. 4.51
2. 5.37
3. 2.58
4. 2.13
5. 2.04
6. 2.11
7. 4.92
8. 4.91

Please supply protein stability index for each of the following items, keeping them in order.
1. VKTGEDGSNLDDAKGLAESLELPK [FANCE]
2. HDAQVRLYKEELEQTYHAKLENAR [LMNB1]
3. TIEELQQKILCSKSENARLVVQID [KRT33B]

Reply:
[5.44, 3.99, 3.38]
